conditions: in ethanol, 323.15 K
Parameter Measured: solubility (mole fraction)
Respond numerically, and do not add a unit to the figure.

Noted for `COc1cc(CO)ccc1O` : its solubility (mole fraction) reads 0.142

###

details: in n-pentanol, 323.15 K
Parameter Measured: solubility (mole fraction)
Respond numerically, and do not add a unit to the figure.

Noted for `COc1cc(CO)ccc1O` : its solubility (mole fraction) reads 0.0728

###

details: in acetonitrile, 323.15 K
Parameter Measured: solubility (mole fraction)
Respond numerically, and do not add a unit to the figure.

Noted for `COc1cc(CO)ccc1O` : its solubility (mole fraction) reads 0.0713

###

settings: in isopropanol, 343.15 K
Parameter Measured: solubility (mole fraction)

Noted for `COc1cc(CO)ccc1O` : its solubility (mole fraction) reads 0.237
